Reported fB Cleavage EC50 values follow for various binders
Biological target: Human Factor B (human) (UniProt P00751)
Sequence (P00751 26-764 limits assumed): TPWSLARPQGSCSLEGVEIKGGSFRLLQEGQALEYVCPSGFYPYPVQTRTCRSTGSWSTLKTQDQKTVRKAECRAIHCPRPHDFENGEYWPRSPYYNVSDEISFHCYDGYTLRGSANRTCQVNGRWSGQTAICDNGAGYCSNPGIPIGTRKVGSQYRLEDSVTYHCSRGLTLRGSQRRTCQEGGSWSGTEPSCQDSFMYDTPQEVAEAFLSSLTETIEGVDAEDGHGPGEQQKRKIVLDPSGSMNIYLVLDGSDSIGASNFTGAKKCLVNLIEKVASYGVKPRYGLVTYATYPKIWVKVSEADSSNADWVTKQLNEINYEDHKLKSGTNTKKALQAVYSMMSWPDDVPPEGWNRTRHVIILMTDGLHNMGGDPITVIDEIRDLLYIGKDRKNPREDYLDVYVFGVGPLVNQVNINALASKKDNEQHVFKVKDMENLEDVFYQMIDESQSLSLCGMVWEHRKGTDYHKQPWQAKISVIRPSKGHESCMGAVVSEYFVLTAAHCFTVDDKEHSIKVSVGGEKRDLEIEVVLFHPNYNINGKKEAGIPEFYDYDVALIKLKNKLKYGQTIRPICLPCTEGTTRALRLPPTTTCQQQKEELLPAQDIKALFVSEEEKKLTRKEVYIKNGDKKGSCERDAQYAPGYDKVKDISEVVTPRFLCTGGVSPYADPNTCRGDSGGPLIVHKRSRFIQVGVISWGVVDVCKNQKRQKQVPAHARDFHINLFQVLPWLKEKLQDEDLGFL
Experiment: cell-based or functional assay
Write the value in nM as a bare number.

>>> test_value("chymase C22S/V138S/S189T/A226R/F228M (enzyme) IIGGTESKPHSRPYMAYLEIVTSNGPSKFCGGFLIRRNFVLTAAHCAGRSITVTLGAHNITEEEDTWQKLEVIKQFRHPKYNTSTLHHDIMLLKLKEKASLTLAVGTLPFPSQFNFVPPGRMCRSAGWGRTGVLKPGSDTLQEVKLRLMDPQACSHFRDFDHNLQLCVGNPRKTKTAFKGDSGGPLLCAGVAQGIVSYGRSDAKPPRVMTRISHYRPWINQILQAN")
2980

We next turn to a different binder, shown below.
Incoming: Item under review: chymase C22S/P38Q/K40V/F41R/V138I/F173S/D175N/A190S/V213A/S218I/A226R (enzyme) IIGGTESKPHSRPYMAYLEIVTSNGQSVRCGGFLIRRNFVLTAAHCAGRSITVTLGAHNITEEEDTWQKLEVIKQFRHPKYNTSTLHHDIMLLKLKEKASLTLAVGTLPFPSQFNFVPPGRMCRIAGWGRTGVLKPGSDTLQEVKLRLMDPQACSHSRNFDHNLQLCVGNPRKTKSSFKGDSGGPLLCAGVAQGIASYGRIDAKPPRVFTRISHYRPWINQILQAN . Reported fB Cleavage EC50?
Outgoing: 717

Sourced from patent US20240117334A1
